Molecular target: IRAK4 (Homo sapiens, UniProt Q9NWZ3)
Construct: endogenous in cells; host or cells: THP-1 cells
Sequence (Q9NWZ3 whole entry): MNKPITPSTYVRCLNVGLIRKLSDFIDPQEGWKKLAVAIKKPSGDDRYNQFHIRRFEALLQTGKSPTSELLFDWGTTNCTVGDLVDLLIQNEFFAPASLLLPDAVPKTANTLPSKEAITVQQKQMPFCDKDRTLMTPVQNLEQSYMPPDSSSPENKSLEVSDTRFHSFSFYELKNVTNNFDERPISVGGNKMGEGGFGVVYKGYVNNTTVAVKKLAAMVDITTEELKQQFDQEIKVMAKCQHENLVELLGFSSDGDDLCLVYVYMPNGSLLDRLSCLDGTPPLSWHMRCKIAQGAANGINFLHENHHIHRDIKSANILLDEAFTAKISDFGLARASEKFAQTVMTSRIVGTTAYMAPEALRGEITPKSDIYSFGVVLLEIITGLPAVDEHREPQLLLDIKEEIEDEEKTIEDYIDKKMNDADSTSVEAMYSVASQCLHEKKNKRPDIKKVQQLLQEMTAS
Experiment: LVL THP1 HTRF (THP1 Homogeneous Time Resolved Fluorescence)
Assay type: cell-based
Conditions: THP1 cells, 18 h incubation with compound, read-out: LVL THP1 HTRF EC50
Observed Property: DC50 (nM)

{"Compound": "C[C@H](C#N)Nc1cc(-n2ncc3cc(C#N)cnc32)ncc1-n1cc([C@H]2CC[C@H](CCN3CC[C@H]4[C@@H]3CCN4c3ccc(N4CCC(=O)NC4=O)c(Cl)c3)CC2)nn1 (single isomer, unassigned) [P-464]", "Observed Property": "DC50", "Numeric Result": 0.7}
{"Compound": "CC1CN(CC[C@H]2CC[C@H](c3cn(-c4cnc(-n5ncc6cc(C#N)cnc65)cc4N[C@H](C)C#N)nn3)CC2)CCC1c1ccc([C@@]2(F)CCC(=O)NC2=O)cc1 (single isomer, unassigned) [P-331]", "Observed Property": "DC50", "Numeric Result": 1.8}
{"Compound": "C[C@H](C#N)Nc1cc(-n2ncc3cc(C#N)c(N)nc32)ncc1C(=O)N[C@H]1CC[C@H](CCN2CCN(c3ccc([C@@]4(C)CCC(=O)NC4=O)cn3)[C@@H](C)C2)CC1 (single isomer, unassigned)", "Observed Property": "DC50", "Numeric Result": 2.3}

----------
Biological target: IRAK4 (Homo sapiens, UniProt Q9NWZ3)
Construct: endogenous in cells
Assay: ALE THP1 HTRF (Advanced Lipoxidation End Product THP1 Homogeneous Time Resolved Fluorescence)
Settings: THP1 cells
Description: For Homogenous Time Resolved Fluorescence (HTRF) assays, a Cisbio HTRF kit was used, which included: Lysis Buffer #1 4×, Blocking Reagent #3 100×, 20× Antibody 1 (Anti-IRAK4 d2), 20× Antibody 2 (Anti-IRAK4 k), and Detection Buffer. 4× Lysis Buffer was stored at 4° C. […] Cells were lysed at room temperature for 45 min with shaking. […] The samples were analyzed by a plate reader (Envision, PerkinElmer) using the Desnor 384 HTRF program.
Where a name gives a salt, the structure may show the parent alone.
Item-by-item account of EC50

{"Compound": "O=C1CCC(c2ccc(N3CCN(CC[C@H]4CC[C@H](NC(=O)c5cnc(-n6ncc7cc(Cl)cnc76)cc5NC5CC5)CC4)CC3)cc2)C(=O)N1 (stereo partly shown)", "Measurement Qualifier": ">", "EC50, µM": 5}
{"Compound": "C[C@H](C#N)Nc1cc(-n2ncc3cc(C#N)c(N)nc32)ncc1C(=O)N[C@H]1CC[C@H](CCN2CCN(c3ccc(C4CCC(=O)NC4=O)cn3)[C@H](C)C2)CC1 (stereo partly shown)", "Measurement Qualifier": "=", "EC50, µM": 0.008}
{"Compound": "N#Cc1cnc2c(cnn2-c2cc(NC34CC(C3)C4)c(C(=O)NC3CCC(CCN4CCN(c5ccc(C6CCC(=O)NC6=O)cc5)CC4)CC3)cn2)c1 (stereo not shown)", "Measurement Qualifier": "=", "EC50, µM": 0.038}
{"Compound": "CNc1cc(-n2ncc3cc(C#N)cnc32)ncc1C(=O)NC1CCC(CCN2CCN(c3ccc(C4CCC(=O)NC4=O)cc3)CC2)CC1 (stereo not shown)", "Measurement Qualifier": "=", "EC50, µM": 0.09}
{"Compound": "N#Cc1cnc2c(cnn2-c2cc(NC3CC3)c(C(=O)N[C@H]3CC[C@H](OCC4CCN(c5ccc(C6CCC(=O)NC6=O)cc5)CC4)CC3)cn2)c1 (stereo partly shown)", "Measurement Qualifier": "=", "EC50, µM": 0.049}
{"Compound": "C[C@H](C#N)Nc1cc(-n2ncc3cc(C#N)c(N)nc32)ncc1-n1cc([C@H]2CC[C@H](CCN3CCN(c4ccc(C5CCC(=O)NC5=O)cc4)CC3)CC2)nn1 (stereo partly shown) [P-160, TFA]", "Measurement Qualifier": "=", "EC50, µM": 0.004}
{"Compound": "CC(C)(C)Nc1cc(-n2ncc3cc(C#N)cnc32)ncc1C(=O)NC1CCC(C(=O)N2CCN(c3ccc4c(c3)C(=O)N(C3CCC(=O)NC3=O)C4)CC2)CC1 (stereo not shown)", "Measurement Qualifier": "=", "EC50, µM": 0.024}
